Counter-ions that a name gives are not always drawn.
observable: melting point (°C)
Provide the reading as a plain figure in °C.

Examples from the recorded data:
> print(dat)
                                   molecule  resultunits  value
1  Oc1ccc([C@H]2CCCc3ccccc3[C@]2(O)CCCN2CCOCC2)cc1 (relative stereo)           °C  177.1
2  CCN(CC)CCCC1(O)c2ccccc2CCCC1c1ccc(C)cc1 (racemic) (as salt: oxalate)           °C  158.6
3  Cc1ccc(C2CCCc3ccccc3C2(O)CCCN2CCN(C)CC2)cc1 (racemic) (as salt: oxalate)           °C    219

Now take the following molecule into account.
Consider the molecule Cc1cccc(C2CCCc3ccccc3C2(O)CCCN2CCOCC2)c1 (racemic) (as salt: oxalate) and give its measured melting point.
204.8

* * *

# Test system: NMRI-mice
# assayProcedure: Acceleration of gastric emptying and small intestinal propulsion in NMRI-mice
# Type: in vivo
# reportedConditions: Mus musculus, sc; lowest active dose; subcutaneous, 30 min before phenol red test meal; stomach content 15 min after meal; active when >60% of animals below 0.9 extinction units; read-out: LAD (mg/kg) Gastric emptying
observable: minimal effective dose

> print(dat)
                                   molecule              observable       value
1  CCN(CC)CCCC1(O)c2ccccc2CCCC1c1ccc(Cl)c(OC)c1 (racemic)  minimal effective dose  > 40 mg/kg
2  Cc1ccc(C2CCCc3ccccc3C2(O)CCCN(C)C)cc1 (racemic)  minimal effective dose    10 mg/kg
3  CCN(CC)CCCC1(O)c2ccccc2CCCC1c1ccc(OC)c(OC)c1 (racemic)  minimal effective dose  > 10 mg/kg
4  OC1(CCCN2CCCC2)c2ccccc2CCCC1c1ccccc1 (racemic)  minimal effective dose  > 10 mg/kg

Consider the molecule Cc1ccc(C2CCCc3ccccc3C2(O)CCCN2CCCC2)cc1 (racemic) and give its measured minimal effective dose.
> 10 mg/kg

Consider the molecule OC1(CCCN2CCCC2)c2ccccc2CCCC1c1ccc(Cl)cc1 (racemic) and give its measured minimal effective dose.
> 10 mg/kg

Consider the molecule COc1ccc(C2CCCc3ccccc3C2(O)CCCN(C)C)cc1 (racemic) and give its measured minimal effective dose.
> 10 mg/kg

Consider the molecule CCN(CC)CCCC1(O)c2ccccc2CCCC1c1ccc(F)cc1F (racemic) and give its measured minimal effective dose.
10 mg/kg

* * *

Parameter: minimal effective dose. Scope: all listed entries.
# Tested on: NMRI-mice
# assayProcedure: Acceleration of gastric emptying and small intestinal propulsion in NMRI-mice
# Assay type: in vivo
# reportedConditions: Mus musculus, sc; lowest active dose; subcutaneous, 30 min before phenol red test meal; stomach content 15 min after meal; active when >60% of animals below 0.9 extinction units; read-out: LAD (mg/kg) Gastric emptying

> print(dat)
                                   compound       value
1  CN(C)CCCC1(O)c2ccccc2CCCC1c1ccc2c(c1)OCO2 (racemic) [Compound 88]  > 10 mg/kg

Consider the compound CN(C)CCCC1(O)c2ccccc2CCCC1c1cncc(Cl)c1 (racemic) [Compound 81] and give its measured minimal effective dose.
> 10 mg/kg

Consider the compound CN(C)CCC[C@@]1(O)c2ccccc2CCC[C@@H]1c1ccc(Cl)cc1 (racemic) [Compound 1] and give its measured minimal effective dose.
2.5 mg/kg

Consider the compound CNCCCC1(O)c2ccccc2CCCC1c1cccc(C)c1 (racemic) [Compound 22] and give its measured minimal effective dose.
> 10 mg/kg

* * *

Parameter: melting point. Scope: all listed entries.
Where a name gives a salt, the structure may show the parent alone.
Provide the reading as a plain figure in °C.

> print(dat)
                                   molecule  value
1  CCN(CC)CCCC1(O)c2ccccc2CCCC1c1ccc(OC)cc1 (racemic) (as salt: oxalate)    153

Consider the molecule OC1(CCCN2CCCC2)c2ccccc2CCCC1c1ccc(Cl)cc1 (racemic) (as salt: oxalate) and give its measured melting point.
236.2

Consider the molecule COCCN(C)CCCC1(O)c2ccccc2CCCC1c1ccc(F)cc1F (racemic) (as salt: oxalate) and give its measured melting point.
140

Consider the molecule CN(C)CCCC1(O)c2ccccc2CCCC1c1ccccc1 (single isomer, unassigned) (as salt: oxalate) [Compound 104] and give its measured melting point.
210

Consider the molecule CN(C)CCCC1(O)c2ccccc2CCCC1c1cnc2ccccc2c1 (racemic) and give its measured melting point.
150.3

Consider the molecule CN(C)CCC[C@@]1(O)c2ccccc2OCC[C@@H]1c1ccccc1 (relative stereo) (as salt: oxalate) and give its measured melting point.
136

Consider the molecule COCCN(C)CCCC1(O)c2ccccc2CCCC1c1ccc(O)cc1 (racemic) (as salt: oxalate) and give its measured melting point.
191.1

Consider the molecule COc1cccc(C2CCCc3ccccc3C2(O)CCCN2CCN(C(C)=O)CC2)c1 (racemic) and give its measured melting point.
153

Consider the molecule CCN(CC)CCCC1(O)c2ccccc2CCCC1c1cccc(Cl)c1 (racemic) (as salt: oxalate) and give its measured melting point.
160.3

Consider the molecule OC1(CCCN2CCCC2)c2ccccc2CCCC1c1ccccc1 (racemic) (as salt: oxalate) and give its measured melting point.
202

* * *

# target: GHS1A-receptor (Homo sapiens)
# Construct: expressed in transfected cells; host or cells: HEK293
# Sequence (Q92847 whole entry): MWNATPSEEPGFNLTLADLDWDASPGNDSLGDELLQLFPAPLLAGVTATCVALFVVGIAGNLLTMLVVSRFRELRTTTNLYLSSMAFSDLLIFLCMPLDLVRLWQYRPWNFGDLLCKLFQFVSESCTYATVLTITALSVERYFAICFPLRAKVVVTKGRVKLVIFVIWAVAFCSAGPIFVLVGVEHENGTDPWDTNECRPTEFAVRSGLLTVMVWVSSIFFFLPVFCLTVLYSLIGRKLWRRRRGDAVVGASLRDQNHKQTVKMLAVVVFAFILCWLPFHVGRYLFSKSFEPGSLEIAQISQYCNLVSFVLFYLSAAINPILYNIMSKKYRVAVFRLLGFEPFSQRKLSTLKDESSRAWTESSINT
# assayProcedure: Ghrelin-agonism in HEK293 cells (intracellular calcium, FLIPR)
# Type: cell-based
# reportedConditions: HEK293 cells permanently transfected with GHS1A-receptor, calcium fluorescence (fluo-4 or Kit-3), EC50 in M, read-out: pEC50 (converted)
observable: EC50

> print(dat)
                                   compound  observable    value
1  CC(C)NCCCC1(O)c2ccccc2CCCC1c1cncc(Cl)c1 (racemic)        EC50   251 nM
2  Cc1ccc(C2CCCc3ccccc3C2(O)CCCN(C)C)cc1 (racemic)        EC50  15.8 nM
3  CN(C)CCC[C@@]1(O)c2ccccc2CCC[C@@H]1c1ccc(Cl)cc1 (racemic)        EC50  39.8 nM

Now take the following compound into account.
Consider the compound Cc1ccc(C2CCOc3ccccc3C2(O)CCCN(C)C)cc1 (racemic) and give its measured EC50.
63.1 nM

* * *

# target: GHS1A-receptor (Homo sapiens)
# Construct: expressed in transfected cells; host or cells: HEK293
# assayProcedure: Ghrelin-agonism in HEK293 cells (intracellular calcium, FLIPR)
# Format: cell-based
# reportedConditions: HEK293 cells permanently transfected with GHS1A-receptor, calcium fluorescence (fluo-4 or Kit-3), EC50 in M, read-out: pEC50 (converted)
Mark each entry condition met if its EC50 sits below 800 nM, and condition not met for all others.

Reference set (5 entries):
> print(dat)
                                   molecule         labelclass
1  CN(C)CCCC1(O)c2ccccc2CCCC1c1ccccc1 (racemic) [Compound 106]      condition met
2  CN(CCCC1(O)c2ccccc2CCCC1c1cnc2ccccc2c1)Cc1ccccc1 (racemic) [Compound 87]  condition not met
3  COc1ccc(C2CCCc3ccccc3C2(O)CCCN(C)C)cc1 (racemic) [Compound 66]      condition met
4  COCCN(C)CCCC1(O)c2ccccc2CCCC1c1ccc(F)cc1F (racemic) [Compound 58]      condition met
5  Cc1ccc(C2CCCc3ccccc3C2(O)CCCN2CCN(C)CC2)cc1 (racemic) [Compound 33]  condition not met

In plain terms, does CN(C)CCC[C@@]1(O)c2ccccc2OCC[C@@H]1c1ccccc1 (relative stereo) [Compound 8] come in under 800 nM for EC50?
condition met

In plain terms, does OC1(CCCN2CCNCC2)c2ccccc2CCCC1c1ccc(Cl)cc1 (racemic) [Compound 51] come in under 800 nM for EC50?
condition not met

* * *

# target: GHS1A-receptor (Homo sapiens)
# Construct: expressed in transfected cells; host or cells: HEK293
# assayProcedure: Ghrelin-agonism in HEK293 cells (intracellular calcium, FLIPR)
# Assay type: cell-based
# reportedConditions: HEK293 cells permanently transfected with GHS1A-receptor, calcium fluorescence (fluo-4 or Kit-3), EC50 in M, read-out: pEC50 (converted)
Structures can show the parent of a compound that is named as a salt.
Mark each entry condition met if its EC50 sits below 300 nM, and condition not met for all others.

> print(dat)
                                   molecule         labelclass
1  CN(C)CCCC1(O)c2ccccc2CCCC1c1ccc(Cl)cc1 (single isomer, unassigned) [Compound 5]  condition not met

In plain terms, does Cc1ccc([C@H]2CCCc3ccccc3[C@]2(O)CCCN(C)C)cn1 (racemic) [Compound 16, hydrochloride] come in under 300 nM for EC50?
condition met

In plain terms, does CC(C)NCCCC1(O)c2ccccc2CCCC1c1ccc(Cl)cc1 (racemic) come in under 300 nM for EC50?
condition not met

In plain terms, does CC(=O)N1CCN(CCCC2(O)c3ccccc3CCCC2c2ccc(C)cc2)CC1 (racemic) come in under 300 nM for EC50?
condition not met

Values compiled from patent US9040725B2.
